Experiment: Dimensions (size, PDI) of DNPs co-assembled from IAJDs and Luc-mRNA by DLS
Type: physicochemical
Conditions: Table 16; DNPs from IAJD 4 mg/mL and Luc-mRNA 0.10 mg/mL by injection in acetate buffer (10 mM, pH 4.0)
measurement_kind: Size (d, nm)

Past entries and their recorded results:
# compound, readout_units, Size (d, nm)
records = [
    ("CCCCCCCCCCCCCCCCCCOc1cc(COC(=O)CCCN2CCN(C)CC2)cc(OCCCCCCCCCCCCCCC)c1 [IAJD 153]", "nm", 232),
    ("CCCCCCCCCCCCCCCCCCOc1cc(COC(=O)CCCN2CCN(CCO)CC2)cc(OCCCCCCCCCCC)c1 [IAJD 128]", "nm", 291),
    ("CCCCCCCCCCCCCCOc1cc(COC(=O)CCCN2CCN(C)CC2)cc(OCCCCCCCCCCCCC)c1 [IAJD 171]", "nm", 174),
    ("CCCCCCCCCCCCCCOc1cc(CNC(=O)CCCN2CCN(C)CC2)cc(OCCCCCCCCCCC)c1 [IAJD 133]", "nm", 228),
    ("CCCCCCCCCCCCCOc1cc(COC(=O)CCCN2CCN(C)CC2)cc(OCC(CC)CCCC)c1 (stereo not drawn) [IAJD 161]", "nm", 129),
]

(I) CCCCCCCCCCCCCCCOc1cc(COC(=O)CCCN2CCN(CCO)CC2)cc(OCCCCCCCC)c1 [IAJD 138]
(II) CCCCCCCCCCCOc1cc(COC(=O)CCCN2CCN(CCO)CC2)cc(OCC(CC)CCCC)c1 (stereo not drawn) [IAJD 130]
Between I and II , which one shows the smaller Size (d, nm) number? Mark your selection by writing its label.
I

Source: patent US20240252677A1
